For each entry below, report its shrunken log2 fold change value.
System: Escherichia coli TOP10
methodSummary: shrunken log2 fold change of peptide-encoding DNA abundance (4.5 h post-induction vs induction); higher = less antimicrobial activity (less host growth inhibition)
recordedConditions: time post-induction: 4.5 h; library: site-saturation at positions 5, 18, 19, 20

Solved entries:
entrySequence	propertyMeasured	reading
RRIRSRPPRLPRPRPRPKITPRP	shrunken log2 fold change	-0.325
RRIRPRPPRLPRPRPRPMAYPRP	shrunken log2 fold change	-0.126
RRIRSRPPRLPRPRPRPLMQPRP	shrunken log2 fold change	-0.0707
RRIRFRPPRLPRPRPRPLTKPRP	shrunken log2 fold change	-0.2
RRIRQRPPRLPRPRPRPHIAPRP	shrunken log2 fold change	-0.142

Quick one: give me shrunken log2 fold change for each item below, same order please.
1. RRIRYRPPRLPRPRPRPNFDPRP
2. RRIRLRPPRLPRPRPRPPSWPRP
3. RRIRRRPPRLPRPRPRPHSKPRP
4. RRIRSRPPRLPRPRPRPETYPRP
5. RRIRARPPRLPRPRPRPHQFPRP
6. RRIRARPPRLPRPRPRPPWWPRP
7. RRIRFRPPRLPRPRPRPAKDPRP
8. RRIRDRPPRLPRPRPRPAIIPRP

Result:
1. -0.565
2. 0.0349
3. -0.198
4. -0.293
5. -0.024
6. 1.03
7. 0.255
8. 0.0892

Quick one: give me shrunken log2 fold change for each item below, same order please.
1. RRIRRRPPRLPRPRPRPAPRPRP
2. RRIRKRPPRLPRPRPRPDGLPRP
3. RRIRRRPPRLPRPRPRPEQQPRP
4. RRIRARPPRLPRPRPRPHCDPRP
5. RRIRWRPPRLPRPRPRPMAVPRP
6. RRIRRRPPRLPRPRPRPHWNPRP

Result:
1. 0.996
2. -0.162
3. 0.22
4. 0.214
5. 0.173
6. -0.159

Quick one: give me shrunken log2 fold change for each item below, same order please.
1. RRIRERPPRLPRPRPRPEHCPRP
2. RRIRERPPRLPRPRPRPNADPRP
3. RRIRMRPPRLPRPRPRPCNLPRP
4. RRIRKRPPRLPRPRPRPLPVPRP
5. RRIRDRPPRLPRPRPRPQVHPRP
6. RRIRYRPPRLPRPRPRPNRYPRP
7. RRIRPRPPRLPRPRPRPYISPRP

Result:
1: -0.014; 2: -0.0389; 3: -0.369; 4: 0.431; 5: -0.0385; 6: -0.499; 7: -0.75

====

Test system: Escherichia coli TOP10
methodSummary: shrunken log2 fold change of peptide-encoding DNA abundance (4.5 h post-induction vs induction); higher = less antimicrobial activity (less host growth inhibition)
recordedConditions: time post-induction: 4.5 h; library: site-saturation at positions 5, 18, 19, 20
Would you mind labelling by shrunken log2 fold change? At or over 0.03 is class 1, under is class 0.

entrySequence	measurementTarget	discreteLabel
RRIRIRPPRLPRPRPRPFKWPRP	Escherichia coli TOP10	class 0

Problem: Identify whether the reported shrunken log2 fold change of the following sequence is 0.03 or greater: "RRIRARPPRLPRPRPRPVFYPRP"
Result: class 0

Problem: Identify whether the reported shrunken log2 fold change of the following sequence is 0.03 or greater: "RRIRYRPPRLPRPRPRPAYVPRP"
Result: class 0

Problem: Identify whether the reported shrunken log2 fold change of the following sequence is 0.03 or greater: "RRIRNRPPRLPRPRPRPNAVPRP"
Result: class 1

====

Test system: Escherichia coli TOP10
methodSummary: shrunken log2 fold change of peptide-encoding DNA abundance (4.5 h post-induction vs induction); higher = less antimicrobial activity (less host growth inhibition)
recordedConditions: time post-induction: 4.5 h; library: site-saturation at positions 5, 18, 19, 20
propertyMeasured: shrunken log2 fold change
Give bare numbers.

Solved entries:
entrySequence	shrunken log2 fold change
RRIRARPPRLPRPRPRPQNYPRP	-0.1
RRIRLRPPRLPRPRPRPRYYPRP	-0.103
RRIRYRPPRLPRPRPRPSEKPRP	-0.116
RRIRTRPPRLPRPRPRPAHIPRP	0.0726

Quick one: give me shrunken log2 fold change for each item below, same order please.
1. RRIRARPPRLPRPRPRPVCVPRP
2. RRIRARPPRLPRPRPRPADCPRP

Result:
1: 0.579; 2: 0.203

Quick one: give me shrunken log2 fold change for each item below, same order please.
1. RRIRNRPPRLPRPRPRPDYRPRP
2. RRIRYRPPRLPRPRPRPPFKPRP
3. RRIRQRPPRLPRPRPRPPRHPRP
4. RRIRDRPPRLPRPRPRPHYMPRP
5. RRIRGRPPRLPRPRPRPMEDPRP
6. RRIRYRPPRLPRPRPRPCYFPRP

Result:
1. -0.668
2. -0.554
3. 0.644
4. -0.231
5. -0.0262
6. -1.04

Quick one: give me shrunken log2 fold change for each item below, same order please.
1. RRIRFRPPRLPRPRPRPMAHPRP
2. RRIRQRPPRLPRPRPRPNHCPRP
3. RRIRYRPPRLPRPRPRPEWPPRP

Result:
[0.0587, -0.0615, -0.0693]

Quick one: give me shrunken log2 fold change for each item below, same order please.
1. RRIRKRPPRLPRPRPRPKWIPRP
2. RRIRSRPPRLPRPRPRPCDEPRP
3. RRIRPRPPRLPRPRPRPKNNPRP

Result:
[-0.111, 0.124, -0.475]

Quick one: give me shrunken log2 fold change for each item below, same order please.
1. RRIRPRPPRLPRPRPRPYMIPRP
2. RRIRPRPPRLPRPRPRPQPMPRP

Result:
1. -0.398
2. 0.225

====

Tested on: Escherichia coli TOP10
methodSummary: shrunken log2 fold change of peptide-encoding DNA abundance (4.5 h post-induction vs induction); higher = less antimicrobial activity (less host growth inhibition)
recordedConditions: time post-induction: 4.5 h; library: site-saturation at positions 5, 18, 19, 20
propertyMeasured: shrunken log2 fold change
One number for each entry.

Solved entries:
entrySequence	shrunken log2 fold change
RRIRYRPPRLPRPRPRPDVTPRP	-0.00733
RRIRIRPPRLPRPRPRPGFGPRP	0.28
RRIRGRPPRLPRPRPRPSWGPRP	0.0507
RRIRTRPPRLPRPRPRPMCDPRP	0.0157
RRIRARPPRLPRPRPRPCRFPRP	0.0212
RRIRWRPPRLPRPRPRPMCWPRP	0.883
RRIRIRPPRLPRPRPRPVVNPRP	-0.356
RRIRVRPPRLPRPRPRPRAHPRP	0.00164

Quick one: give me shrunken log2 fold change for each item below, same order please.
1. RRIRVRPPRLPRPRPRPAVAPRP
2. RRIRWRPPRLPRPRPRPLRIPRP

Result:
0.266
0.148

====

Test system: Escherichia coli TOP10
methodSummary: shrunken log2 fold change of peptide-encoding DNA abundance (4.5 h post-induction vs induction); higher = less antimicrobial activity (less host growth inhibition)
recordedConditions: time post-induction: 4.5 h; library: site-saturation at positions 5, 18, 19, 20
Would you mind labelling by shrunken log2 fold change? At or over -0.08 is y, under is n.

entrySequence	discreteLabel
RRIRRRPPRLPRPRPRPASCPRP	y

Problem: Identify whether the reported shrunken log2 fold change of the following sequence is -0.08 or greater: "RRIRVRPPRLPRPRPRPHIAPRP"
Result: n

Problem: Identify whether the reported shrunken log2 fold change of the following sequence is -0.08 or greater: "RRIRTRPPRLPRPRPRPSYRPRP"
Result: n

====

System: Escherichia coli TOP10
methodSummary: shrunken log2 fold change of peptide-encoding DNA abundance (4.5 h post-induction vs induction); higher = less antimicrobial activity (less host growth inhibition)
recordedConditions: time post-induction: 4.5 h; library: site-saturation at positions 5, 18, 19, 20
propertyMeasured: shrunken log2 fold change
Answers are plain numbers.

Solved entries:
entrySequence	measurementTarget	shrunken log2 fold change
RRIRTRPPRLPRPRPRPFWCPRP	Escherichia coli TOP10	-0.111
RRIRIRPPRLPRPRPRPRHFPRP	Escherichia coli TOP10	-0.00457
RRIRVRPPRLPRPRPRPFIYPRP	Escherichia coli TOP10	-0.236

Quick one: give me shrunken log2 fold change for each item below, same order please.
1. RRIRMRPPRLPRPRPRPECWPRP
2. RRIRNRPPRLPRPRPRPPPWPRP
3. RRIRNRPPRLPRPRPRPMAGPRP
4. RRIRMRPPRLPRPRPRPTWSPRP
5. RRIRCRPPRLPRPRPRPDWWPRP

Result:
2.25
0.591
0.0481
0.66
0.256

====

Test system: Escherichia coli TOP10;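 also: peptides expressed intracellularly from a pBAD plasmid library in pooled LB shake-flask culture, induced with 0.3% L-arabinose, DNA abundance read by NGS, three biological replicates, DESeq2 with apeglm shrinkage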
methodSummary: shrunken log2 fold change of peptide-encoding DNA abundance (4.5 h post-induction vs induction); higher = less antimicrobial activity (less host growth inhibition)
recordedConditions: time post-induction: 4.5 h; library: site-saturation at positions 5, 18, 19, 20
For each entry below, report its shrunken log2 fold change value.
Answers are plain numbers.

entrySequence	reading
RRIRVRPPRLPRPRPRPNKHPRP	-0.189
RRIRERPPRLPRPRPRPFVKPRP	-0.0102

Please find the next sequence below.
shrunken log2 fold change measured on "RRIRTRPPRLPRPRPRPHKQPRP" = -0.148

This collection of values is drawn from the supplement of paper PMC9112550.
